The reported numbers originate from paper doi:10.1101/2021.02.08.430344.

Molecular target: SARS-CoV-2 nucleocapsid (N) protein (SARS-CoV-2, UniProt P0DTC9 2-419)
Assay: SV-AUC + ITC global fit; […], pH 7.4; ITC at 20 C; […] (137 mM NaCl)
Conditions: protein: commercial; tags: C-terminal His-tag; chain copies: 2; single strand
pKd: −log10 of the molar value.

| BINDER | pKd |
| --- | --- |
| TTTTTT (ssDNA) [T6] | 6.22 |
